# protocolDescription: Caco-2 permeability assay (CacoReady kit)
# Format: in vitro ADME
# conditionLabel: human
Catalogue of Papp values

INSERT INTO assay_data (molecule, endpoint, reportedmeasurement) VALUES
  ('CCNC(=O)C(=O)CC[C@H](NC(=O)c1sc(C(F)(F)F)nc1C)C(=O)Nc1cccn(CC(=O)NC2C3CC4CC(C3)CC2C4)c1=O (stereo partly drawn)', 'Papp', '1 to 10 ×10⁻⁶ cm/s'),
  ('CCNC(=O)C(=O)CC[C@H](NC(=O)c1sc(Br)cc1Br)C(=O)Nc1cccn(CC(=O)NC2C3CC4CC(C3)CC2C4)c1=O (stereo partly drawn)', 'Papp', '1 to 10 ×10⁻⁶ cm/s'),
  ('CCNC(=O)C(=O)CC[C@H](NC(=O)c1nn[nH]n1)C(=O)Nc1cccn(CC(=O)NC2C3CC4CC(C3)CC2C4)c1=O (stereo partly drawn)', 'Papp', '< 1 ×10⁻⁶ cm/s'),
  ('CCNC(=O)C(=O)CC[C@H](NC(=O)c1cncn1C)C(=O)Nc1cccn(CC(=O)NC[C@@H]2CC[C@H]3C[C@@H]2C3(C)C)c1=O', 'Papp', '< 1 ×10⁻⁶ cm/s');

Consider "CCNC(=O)C(=O)CC[C@H](NC(=O)c1cccnc1)C(=O)Nc1cccn(CC(=O)NC23CC4CC(CC(C4)C2)C3)c1=O" . Its measured Papp is < 1 ×10⁻⁶ cm/s

Record summary for "CCNC(=O)C(=O)CC[C@H](NC(=O)c1cn2ccsc2n1)C(=O)Nc1cccn(CC(=O)N[C@@H]2C[C@@H]3CC[C@H]2C3)c1=O" : reported Papp = < 1 ×10⁻⁶ cm/s

Recorded result, "CCNC(=O)C(=O)CC[C@H](NC(=O)c1oc2ccccc2c1C)C(=O)Nc1cccn(CC(=O)N[C@H]2C[C@H]3CC[C@]2(C)C3(C)C)c1=O" , Papp: 1 to 10 ×10⁻⁶ cm/s

---

Reported Papp values follow for various molecules
# protocolDescription: Caco-2 permeability assay (CacoReady kit)
# Format: in vitro ADME
# conditionLabel: human

Worked examples, 3 molecules total:
INSERT INTO measurements (molecule, reportedmeasurement) VALUES
  ('CCNC(=O)C(=O)CC[C@H](NC(=O)c1ccc2c(c1)CCCN2)C(=O)Nc1cccn(CC(=O)NC23CCC(C2)C3)c1=O [Compound I-104]', '< 1 ×10⁻⁶ cm/s'),
  ('CCNC(=O)C(=O)CC[C@H](NC(=O)c1cncn1C)C(=O)Nc1cccn(CC(=O)NC23CC4CC(CC(CC)(C4)C2)C3)c1=O [Compound I-5]', '< 1 ×10⁻⁶ cm/s'),
  ('CCNC(=O)C(=O)CC[C@H](NC(=O)c1cc(C(=O)OC)cc([N+](=O)[O-])c1)C(=O)Nc1cccn(CC(=O)NC2(C(=O)OC)C3CC4CC(C3)CC2C4)c1=O (stereo partly drawn) [Compound I-64]', '1 to 10 ×10⁻⁶ cm/s');

Note to self: Papp recorded for CCNC(=O)C(=O)CC[C@H](NC(=O)c1cc(Cl)c(Cl)s1)C(=O)Nc1cccn(CC(=O)NC2C3CC4CC(C3)CC2C4)c1=O (stereo partly drawn) [Compound I-54] was 1 to 10 ×10⁻⁶ cm/s

Sample CCNC(=O)C(=O)CC[C@H](NC(=O)[C@H]1CCNC1)C(=O)Nc1cccn(CC(=O)NC2C3CC4CC2CC(F)(C4)C3)c1=O (stereo partly drawn) [Compound I-59] ; Papp observed: < 1 ×10⁻⁶ cm/s
